Just for reference, patent US20230049152A1 is where these values come from.

subject of test: T1, human CCR8 (human, UniProt P51685 1-355)
T1 construct: the assay field says which; also called hCCR8; huCCR8
assay notes: flow cytometry, CHO-huCCR8.Gna15 cells, relative to rb.Ab4
Catalogue of Relative EC50 readings, one per entry.
measured endpoint: Relative EC50 (ratio)

binder="hu.Ab4.H11L1 (antibody, human IgG1, kappa, V domains shown) VH: EVQLLESGGGLVQPGGSLRLSCAASGFSLSNYAMIWVRQAPGKGLEWVSTISLGGYTYYANWAKGRFTISRDNSKNTLYLQMNSLRAEDTAVYYCARARWSTDSAIYTYAFDPWGQGTLVTVSS VL: DYQMTQSPSSLSASVGDRVTITCQASQSISSYLSWYQQKPGKRPKLLIYKASTLASGVPSRFSGSGSGTDFTLTISSLQPEDFATYYCQQGYTSSNIDNIFGGGTKVEIKR" measured_endpoint="Relative EC50" quantitative_result=0.88
binder="hu.Ab4.H9L1 (antibody, human IgG1, kappa, V domains shown) VH: EQQLLESGGGLVQPGGSLRLSCAVSGFSLSNYAMIWVRQAPGKGLEWVGTISLGGYTYYANWAKGRFTISKDSSKTTVYLQMNSLRAEDTAVYYCARARWSTDSAIYTYAFDPWGPGTLVTVSS VL: DYQMTQSPSSLSASVGDRVTITCQASQSISSYLSWYQQKPGKRPKLLIYKASTLASGVPSRFSGSGSGTDFTLTISSLQPEDFATYYCQQGYTSSNIDNIFGGGTKVEIKR" measured_endpoint="Relative EC50" quantitative_result=1.04
binder="hu.Ab4.H5L1 (antibody, human IgG1, kappa, V domains shown) VH: EQQLLESGGGLVQPGGSLRLSCAVSGFSLSNYAMIWVRQAPGKGLEWVGTISLGGYTYYANWAKGRFTISRDSSKTTVYLQMNSLRAEDTAVYFCARARWSTDSAIYTYAFDPWGPGTLVTVSS VL: DYQMTQSPSSLSASVGDRVTITCQASQSISSYLSWYQQKPGKRPKLLIYKASTLASGVPSRFSGSGSGTDFTLTISSLQPEDFATYYCQQGYTSSNIDNIFGGGTKVEIKR" measured_endpoint="Relative EC50" quantitative_result=1.02
